Target: T1, human BCMA on BCMA expressing cell lines (human, UniProt Q02223 1-184)
T1 sequence: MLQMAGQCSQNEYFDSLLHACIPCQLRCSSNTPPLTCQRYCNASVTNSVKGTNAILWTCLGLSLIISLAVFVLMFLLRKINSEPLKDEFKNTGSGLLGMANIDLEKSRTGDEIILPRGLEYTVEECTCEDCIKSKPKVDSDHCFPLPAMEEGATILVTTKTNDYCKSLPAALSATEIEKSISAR
Assay: cell-based or functional assay
endpoint name: TDCC EC50 (EJM cells) (pM)
Give bare numbers, in pM.

binder="BCMA targeting trispecific protein 01C04 (other, trispecific; not shown: anti-albumin domain, anti-CD3 domain and the linkers of the trispecific (TriTAC) chain; the C-terminal 6xHis tag follows these missing domains and is left out) VHH: EVQLVESGGGLVQPGRSLTLSCAASTNIPSISPMGWYRQAPGKQRELVAAIHGDSTLYADSVKGRFTISRDNAKNSIYLQMNSLRPEDTALYYCNKVPWGDYHPRNVYWGQGTQVTVSS" measurement_unit=pM measured_number=17.5
binder="BCMA targeting trispecific protein 01E08 (other, not shown: large carriers; small tags and cut ends, trispecific) VHH: EVQLVESGGGLVQPGRSLTLSCAASTNIFSQSPMGWYRQAPGKQRELVAAIHGDSTLYADSVKGRFTISRDNAKNSIYLQMNSLRPEDTALYYCNKVPWGDYHPGNVCWGQGTQVTVSS" measurement_unit=pM measured_number=1.5
binder="BCMA targeting trispecific protein 02E09 (other, not shown: large carriers; small tags and cut ends, trispecific) VHH: EVQLVESGGGLVQPGRSLTLSCAASTNDFSISPMGWYRQAPGKQRELVAAIHGGSTLYADSVKGRFTISRDNAKNSIYLQMNSLRPEDTALYYCNKVPWGDYHPRNVAWGQGTQVTVSS" measurement_unit=pM measured_number=31.1

Quick one: TDCC EC50 (EJM cells) for BCMA targeting trispecific protein 02A07 (other, not shown: large carriers; small tags and cut ends, trispecific) VHH: EVQLVESGGGLVQPGRSLTLSCAASTNIFSKSPMGWYRQAPGKQRELVAAIHGNSTLYADSVKGRFTISRDNAKNSIYLQMNSLRPEDTALYYCNKVPWGDYHPREVYWGQGTQVTVSS ? 27.9
